- Test system: nightshade (eastern black nightshade, Solanum ptycanthum)
- ASSAY_COMMENT: Test E greenhouse herbicide test, pre- and postemergence
- Assay type: in vivo
- CONDITION_PARAMETERS: Preemergence, 31 g ai/ha; scale 0 to 100, 0 no effect, 100 complete control
MEASURE_NAME: Plant response rating, Nightshade
One number for each entry.

The following compounds have reported results that may help.
[[record]]
compound = "CC(=O)Oc1c(C)nn(C)c(=O)c1-c1c(C)sc2c(C)cc(C)cc12 [Compound 27]"
value_measured = 90

[[record]]
compound = "CC(=O)Oc1c(C)nn(C)c(=O)c1-c1c(C)cc(C)c2ccccc12 [Compound 153]"
value_measured = 70

[[record]]
compound = "CCC(=O)Oc1c(C)nn(C)c(=O)c1-c1c(C)sc2ccc(Cl)cc12 [Compound 109]"
value_measured = 65


Give Plant response rating, Nightshade for CCOC(=O)Oc1c(C)nn(C)c(=O)c1-c1c(C)sc2ccc(C)cc12 [Compound 82]
90

###

- Test system: kochia (Kochia scoparia)
- ASSAY_COMMENT: Test A greenhouse herbicide test, pre- and postemergence
- Format: in vivo
- CONDITION_PARAMETERS: Postemergence, 500 g ai/ha; visual rating after approx. 10 d, 0 to 100 scale (0 no effect, 100 complete control)
MEASURE_NAME: Plant response rating, Kochia
Numbers only.

The following compounds have reported results that may help.
[[record]]
cpd_smiles = "CC(=O)Oc1c(Br)nn(C)c(=O)c1-c1c(C)ccc2ccccc12"
measure_name = "Plant response rating, Kochia"
value_measured = 90

[[record]]
cpd_smiles = "CCCC(=O)Oc1c(C)nn(C)c(=O)c1-c1c(C)sc2c(C)cc(C)cc12"
measure_name = "Plant response rating, Kochia"
value_measured = 90

[[record]]
cpd_smiles = "Cc1nn(C)c(=O)c(-c2ccc(F)c3ccccc23)c1OC(=O)CC(F)(F)F"
measure_name = "Plant response rating, Kochia"
value_measured = 70

[[record]]
cpd_smiles = "Cc1cc(C)c2sc(C)c(-c3c(OCC#N)c(C)nn(C)c3=O)c2c1"
measure_name = "Plant response rating, Kochia"
value_measured = 20

[[record]]
cpd_smiles = "Cc1sc2ccc(Cl)cc2c1-c1c(OS(C)(=O)=O)c(Cl)nn(C)c1=O"
measure_name = "Plant response rating, Kochia"
value_measured = 60

[[record]]
cpd_smiles = "COC(=O)Oc1cnn(C)c(=O)c1-c1c(C)ccc2ccccc12"
measure_name = "Plant response rating, Kochia"
value_measured = 90

[[record]]
cpd_smiles = "COC(=O)Oc1c(Br)nn(C)c(=O)c1-c1c(C)ccc2ccccc12"
measure_name = "Plant response rating, Kochia"
value_measured = 100

[[record]]
cpd_smiles = "Cc1ccc2ccccc2c1-c1c(OC(=O)N2CCOCC2)c(Br)nn(C)c1=O"
measure_name = "Plant response rating, Kochia"
value_measured = 70

[[record]]
cpd_smiles = "CC(=O)Oc1c(C)nn(C)c(=O)c1-c1c(C)cc(C)c2ccccc12"
measure_name = "Plant response rating, Kochia"
value_measured = 90

[[record]]
cpd_smiles = "Cc1ccc2ccccc2c1-c1c(O)c(Cl)nn(C)c1=O"
measure_name = "Plant response rating, Kochia"
value_measured = 100


// input: 2 compounds below; output: Plant response rating, Kochia for each
1. Cc1nn(C)c(=O)c(-c2ccc(Cl)c3ccccc23)c1OP(C)(C)=O
2. CSCC(=O)Oc1c(C)nn(C)c(=O)c1-c1cccc2ccccc12

1. 100
2. 100

###

- System: barnyardgrass (Echinochloa crus-galli)
- ASSAY_COMMENT: Test A greenhouse herbicide test, pre- and postemergence
- Assay type: in vivo
- CONDITION_PARAMETERS: Preemergence, 500 g ai/ha; 0 to 100 scale where 0 is no effect and 100 is complete control
MEASURE_NAME: Plant response rating, Barnyardgrass
Numbers only.

// input: 3 molecules below; output: Plant response rating, Barnyardgrass for each
1. Cc1nn(C)c(=O)c(-c2ccc(Cl)c3ccccc23)c1OS(=O)(=O)N(C)C
2. CCC(=O)Oc1c(Cl)nn(C)c(=O)c1-c1c(C)sc2ccc(Cl)cc12
3. CC(=O)Oc1c(C)nn(C)c(=O)c1-c1c(C)cc(C)c2ccccc12

1: 50; 2: 100; 3: 100

###

- Tested on: barnyardgrass (Echinochloa crus-galli)
- ASSAY_COMMENT: Test A greenhouse herbicide test, pre- and postemergence
- Type: in vivo
- CONDITION_PARAMETERS: Echinochloa crus-galli, pre-emergence, 240 h; Preemergence, 500 g ai/ha; 0 to 100 scale, 0 no effect, 100 complete control; read-out: Plant response rating, Barnyardgrass
Please go through the items and note down their pest or weed control at 500 g/ha.
Numbers only, in %.

The following molecules have reported results that may help.
[[record]]
cpd_smiles = "CC(=O)Oc1c(C)nn(C)c(=O)c1-c1c(C)oc2c(C)cc(C)cc12"
measure_name = "pest or weed control at 500 g/ha"
display_unit = "%"
value_measured = 70

[[record]]
cpd_smiles = "Cc1nn(C)c(=O)c(-c2c(C)oc3c(C)cccc23)c1O"
measure_name = "pest or weed control at 500 g/ha"
display_unit = "%"
value_measured = 100

[[record]]
cpd_smiles = "Cc1cc(C)c2oc(C)c(-c3c(O)c(C)nn(C)c3=O)c2c1"
measure_name = "pest or weed control at 500 g/ha"
display_unit = "%"
value_measured = 80


Kindly consider the entry below.
Give pest or weed control at 500 g/ha for "CCc1sc2cc(C)cc(C)c2c1-c1c(O)c(C)nn(C)c1=O"
90

###

- Tested on: nutsedge, yellow (yellow nutsedge, Cyperus esculentus)
- ASSAY_COMMENT: Test C greenhouse herbicide test, pre- and postemergence
- Format: in vivo
- CONDITION_PARAMETERS: Postemergence, 125 g ai/ha; scale 0 to 100, 0 is no effect, 100 is complete control
I'd appreciate it if you marked entries TRUE when Plant response rating, Nutsedge, Yellow is lower than 80 and FALSE when it is not.

Some solved cases for reference:
[[record]]
cpd_smiles = "CCOC(=O)Oc1c(C)nn(C)c(=O)c1-c1c(CC)ccc2ccccc12"
test_system = "nutsedge, yellow (yellow nutsedge, Cyperus esculentus)"
assigned_label = "TRUE"

[[record]]
cpd_smiles = "CCC(=O)Oc1c(C)nn(C)c(=O)c1-c1c(C)sc2c(C)cc(C)cc12"
test_system = "nutsedge, yellow (yellow nutsedge, Cyperus esculentus)"
assigned_label = "FALSE"

[[record]]
cpd_smiles = "Cc1ccc2ccccc2c1-c1c(O)c(C)nn(C)c1=O"
test_system = "nutsedge, yellow (yellow nutsedge, Cyperus esculentus)"
assigned_label = "FALSE"

[[record]]
cpd_smiles = "COc1nn(C)c(=O)c(-c2c(C)ccc3ccccc23)c1OC(=O)OC(C)C"
test_system = "nutsedge, yellow (yellow nutsedge, Cyperus esculentus)"
assigned_label = "TRUE"

[[record]]
cpd_smiles = "Cc1ccc(-c2c(O)c(Br)nn(C)c2=O)c2ccccc12"
test_system = "nutsedge, yellow (yellow nutsedge, Cyperus esculentus)"
assigned_label = "FALSE"

[[record]]
cpd_smiles = "CC(=O)Oc1c(C)nn(C)c(=O)c1-c1c(C)sc2ccc(C)cc12"
test_system = "nutsedge, yellow (yellow nutsedge, Cyperus esculentus)"
assigned_label = "FALSE"

[[record]]
cpd_smiles = "Cc1ccc2ccccc2c1-c1c(O)cnn(C)c1=O"
test_system = "nutsedge, yellow (yellow nutsedge, Cyperus esculentus)"
assigned_label = "TRUE"


# next molecule below
Hi there! Is Plant response rating, Nutsedge, Yellow for "COC(=O)Oc1c(C)nn(C)c(=O)c1-c1c(C)sc2c(C)cc(C)cc12" below 80, do you know?
FALSE

###

- Test system: soybean (Glycine max)
- ASSAY_COMMENT: Test C greenhouse herbicide test, pre- and postemergence
- Type: in vivo
- CONDITION_PARAMETERS: postemergence, 62 g ai/ha; scale 0 to 100, 0 no effect, 100 complete control
MEASURE_NAME: Soybean plant response rating
One number for each entry.

The following molecules have reported results that may help.
[[record]]
cpd_smiles = "CC(=O)Oc1c(C)nn(C)c(=O)c1-c1c(C)oc2ccc(C)cc12"
value_measured = 0

[[record]]
cpd_smiles = "CC(=O)Oc1c(C)nn(C)c(=O)c1-c1c(C)sc2c(C)cc(C)cc12"
value_measured = 0

[[record]]
cpd_smiles = "CCOC(=O)Oc1c(C)nn(C)c(=O)c1-c1c(C)ccc2ccccc12"
value_measured = 15


// input: 8 molecules below; output: Soybean plant response rating for each
1. Cc1ccc2ccccc2c1-c1c(O)c(C)nn(C)c1=O
2. CCC(=O)Oc1c(C)nn(C)c(=O)c1-c1c(C)sc2c(C)cc(C)cc12
3. Cc1ccc2ccc(C)c(-c3c(O)c(C)nn(C)c3=O)c2c1
4. COc1nn(C)c(=O)c(-c2c(C)sc3ccccc23)c1O
5. CCOC(=O)Oc1c(C)nn(C)c(=O)c1-c1c(C)sc2c(C)cc(C)cc12
6. COc1nn(C)c(=O)c(-c2c(C)ccc3ccccc23)c1O
7. Cc1nn(C)c(=O)c(-c2c(C)sc3ccccc23)c1O
8. CC(=O)Oc1c(C)nn(C)c(=O)c1-c1c(C)oc2c(C)cc(C)cc12

15
0
20
0
0
5
5
0
